Assay: folding stability dG unfold from chymotrypsin proteolysis; higher = more stable
Entries and their measured folding stability dG unfold follow.
Please report the result as a number followed by the unit.

# example entries with known answers
Provide measured folding stability dG unfold value, entry: SAGGSAGGPSYTIQFPYPPGMPPWRLQKLLEEAGYPPPEIEYNPKNGSHWITFSPEVRDAFKELSAGGSAGG [r6_307_TrROS]
0.845 kcal/mol

Quick one: give measured folding stability dG unfold for SAGGKKEKIVEIKLLDMSYDPENKTVTFKFLVKLENGEEKVIELKISAEDFEKMSLEDILKAVKDFFESAGG [r13_512_TrMRF]
4.83 kcal/mol

Give recorded folding stability dG unfold. SMKRVLILVPDPSVDKEELIEELKKKGFEDIEVVDSEEELKKLPENIDVVVIVRDGEVEVREVPPVEALKSA [r9_750_JUSTAS]
0.585 kcal/mol

Note folding stability dG unfold for the sequence shown: SPTVTETTLIASEEDPSSGVKTELTETTTIVKVGGTTTEVTTTTTTLTPEEDGKGTSTVTPSTTTTPIPASA [r9_375_JUSTAS]
1.45 kcal/mol

Give me measured folding stability dG unfold, please, for this sequence: SAGGSAGGSAVTIYIPWDEILEELGLPPEDVEYKPMKNGSYSFKYKNGKPVTIIMPPEDFKSAGGSAGGSAG [r3_477_TrROS]
1.07 kcal/mol

Please list folding stability dG unfold recorded for the sequence SAGGSAGGSAVPFVLPDGYVLEVEPDPETGLYRIRVTSPDGRTYEFTAPPDVPLADIPVVIDDSAGGSAGGS [r12_261_TrMRF]
2.96 kcal/mol

Next up:
For the sequence SAGGSAGGSAGPIVLIKIKNKNGKEIEIEMSLEELKKKLPKELKNMKVEIVEVKEVKVEKSAGGSAGGSAGG [r11_353_TrROS_Hall] , give its reported folding stability dG unfold.
0.315 kcal/mol

----------
Measured folding stability dG unfold, listed per entry for reference.
Assay: folding stability dG unfold from trypsin proteolysis; higher = more stable
I only need the number, in kcal/mol, no unit after it.

Worked cases, folding stability dG unfold given:
Provide folding stability dG unfold value for the following sequence: SAGGSADPIRTISGPVPLEEIEANIKKLLKENPNLDAAVFYIPEIGSKITIYFKNGKIVKIEIDLSSAGGSA [r15_166_TrMRF]
2.88

Kindly indicate its recorded folding stability dG unfold. Item: SAGGSLFEKLNVKSVEVTEVKTYTLPPLPLTVEVPTVKVTLPDGTVIEFTVIKTYDPEDPTPTVTLGSAGGS [r8_422_JUSTAS]
0.822

Read off the recorded folding stability dG unfold for SAGGSAGGSKTVEITITRKDGKKLKIEFYPDGYIKIYDSNGKLVKTIKVDPNASIEEILKALKSAGGSAGGS [r12_990_TrROS_Hall]
3.31

Supply folding stability dG unfold value. Item: SAGGKTKEIELEILFEPVKVKKKKKNKNGKEEEVEEKEFKPVLVRITLKIENGKITEIKIEVEKLDDLSAGG [r13_935_TrROS_Hall]
2.05

Give the reported folding stability dG unfold for this sequence. SASMEAALAKVEEITAEPSWELVGVSPEGVFTIRNPETGTEIVIEIKVTSDGKGYKVTIPSKTVVPAPESAG [r14_20_JUSTAS]
1.45

More entries:
Give the reported value of folding stability dG unfold for this record: SAGGKPLLIKVKVRLKNGKELTITVREGESLEEILARARELLGKPIEVEKIEVIPLPPKKEVKKKEKSAGGS [r8_285_TrROS_Hall]
1.48

Find the measured folding stability dG unfold of SAGGSAGGSAGGSERHTAVLVDTGFRISPAPEEGGLRLEAGASLTIREVPEDALKEVLGSAGGSAGGSAGGS [r4_274_TrMRF] and report it.
-0.398
